Biological target: rGPR41 (Rattus norvegicus)
Sequence (B2GV46 whole entry): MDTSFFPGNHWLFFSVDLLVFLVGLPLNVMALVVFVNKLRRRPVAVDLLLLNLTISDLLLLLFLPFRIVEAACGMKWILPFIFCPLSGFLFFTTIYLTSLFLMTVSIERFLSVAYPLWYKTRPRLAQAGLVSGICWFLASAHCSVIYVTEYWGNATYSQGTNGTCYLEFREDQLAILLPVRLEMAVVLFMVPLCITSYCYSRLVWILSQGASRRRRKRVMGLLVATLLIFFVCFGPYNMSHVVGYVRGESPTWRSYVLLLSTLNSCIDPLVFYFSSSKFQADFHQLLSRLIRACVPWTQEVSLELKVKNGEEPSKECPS
Test: Yeast FUS1-lacZ/FUS1-HIS3 reporter assay, rGPR41 in S. cerevisiae MMY22 (Gpa1/Gαo), FDG substrate
Format: cell-based
Design: expressed in transfected cells; host or cells: S. cerevisiae MMY22 (A1, A5; Gpa1/Gαo integrated) or MMY11 + pRS314-Gpa1/Gαo (A4), transformed with p426GPD-rGPR41
Settings: yeast MMY22 with p462GPD-rGPR41; FDG fluorescence; compounds as salt solutions buffered to pH 7.0
Method: A study was carried out of the function of rGPR41 following expression in S. cerevisiae MMY22, which is a derivative of S. cerevisiae MMY11 containing a copy of the gene encoding the Gpa1/Gαo transplant chimera described above (in which the 5 C-terminal amino acids of Gpa1 are replaced with the 5 C-terminal amino acids of Gαo) integrated into the genome. […]
MEASURED METRIC: Agonism @ rGPR41 Approx. EC50 (M)

>  <MOLECULE>
CCCCCCCCCC(=O)O [Decanoic C10 acid]

>  <SUBJECT OF TEST>
rGPR41 (Rattus norvegicus)

>  <ASSAY RESULT>
inactive/toxic

$$$$
>  <MOLECULE>
CCCCCCCCCCCC(=O)O [Lauric C12 acid]

>  <SUBJECT OF TEST>
rGPR41 (Rattus norvegicus)

>  <ASSAY RESULT>
inactive/toxic

$$$$
>  <MOLECULE>
CC(O)C(=O)O (stereo not shown) [lactate]

>  <SUBJECT OF TEST>
rGPR41 (Rattus norvegicus)

>  <ASSAY RESULT>
Inactive

$$$$
>  <MOLECULE>
O=C(O)CC(=O)C(=O)O [Oxaloacetate]

>  <SUBJECT OF TEST>
rGPR41 (Rattus norvegicus)

>  <ASSAY RESULT>
Inactive

$$$$
>  <MOLECULE>
O=C(O)CC(O)(CC(=O)O)C(=O)O [Citrate]

>  <SUBJECT OF TEST>
rGPR41 (Rattus norvegicus)

>  <ASSAY RESULT>
Inactive

$$$$
>  <MOLECULE>
CCC(O)C(=O)O (stereo not drawn) [alpha-hydroxybutyrate]

>  <SUBJECT OF TEST>
rGPR41 (Rattus norvegicus)

>  <ASSAY RESULT>
Inactive

$$$$
>  <MOLECULE>
CCCCCCCCCCCCCCCC(=O)O [palmitate]

>  <SUBJECT OF TEST>
rGPR41 (Rattus norvegicus)

>  <ASSAY RESULT>
Inactive

$$$$
>  <MOLECULE>
N[C@@H](CCC(=O)O)C(=O)O [Glutamate]

>  <SUBJECT OF TEST>
rGPR41 (Rattus norvegicus)

>  <ASSAY RESULT>
Inactive

$$$$
>  <MOLECULE>
CCCCCCCC/C=C\CCCCCCCC(=O)O [oleate]

>  <SUBJECT OF TEST>
rGPR41 (Rattus norvegicus)

>  <ASSAY RESULT>
Inactive

$$$$
>  <MOLECULE>
O=C1O[C@H]([C@@H](O)CO)C(O)=C1O [Ascorbate]

>  <SUBJECT OF TEST>
rGPR41 (Rattus norvegicus)

>  <ASSAY RESULT>
Inactive

$$$$
>  <MOLECULE>
O=C(O)CCC(=O)O [Succinate]

>  <SUBJECT OF TEST>
rGPR41 (Rattus norvegicus)

>  <ASSAY RESULT>
Inactive

$$$$
>  <MOLECULE>
C[C@H](N)C(=O)O [Alanine]

>  <SUBJECT OF TEST>
rGPR41 (Rattus norvegicus)

>  <ASSAY RESULT>
Inactive

$$$$
